Sourced from ChEMBL document CHEMBL1201861

Some compounds, each annotated with its measured IC50.
Tested on: MCF7
ASSAY EXPLANATION: cells
Type: functional, cell-based
TEST SETTINGS: Homo sapiens
Description: SANGER: Inhibition of human MCF7 cell growth in a cell viability assay.
# unit: µM | format: bare number

query: Quote IC50 with test system MCF7 for CO[C@@H]1[C@H](N(C)C(=O)c2ccccc2)C[C@H]2O[C@]1(C)n1c3ccccc3c3c4c(c5c6ccccc6n2c5c31)C(=O)NC4
result: 0.333

Others:
query: Quote IC50 with test system MCF7 for OC[C@H](Cc1ccccc1)Nc1nc(Oc2ccc3c(c2)CCC3)nc2c1ncn2Cc1ccc(-c2ccccc2)cc1;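 further: growth inhibition of human MCF7 cells, read out with a cell viability assay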
result: 2.26

---

Test system: MFE-280;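 further: growth inhibition of MFE-280 cells, determined with a cell viability readout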
ASSAY EXPLANATION: cells
Type: functional, cell-based
TEST SETTINGS: Homo sapiens
Description: SANGER: Inhibition of human MFE-280 cell growth in a cell viability assay.
pIC50: −log10 of the molar value.
Some compounds, each annotated with its measured pIC50.

query: Answer with the recorded pIC50 of Cc1ccc(C(=O)Nc2ccc(CN3CCN(C)CC3)c(C(F)(F)F)c2)cc1C#Cc1cnc2cccnn12 only.
result: 6.50

query: Answer with the recorded pIC50 of CN(NC(=O)CC(=O)NN(C)C(=S)c1ccccc1)C(=S)c1ccccc1 only.
result: < 6.70

query: Answer with the recorded pIC50 of OC[C@H](Cc1ccccc1)Nc1nc(Oc2ccc3c(c2)CCC3)nc2c1ncn2Cc1ccc(-c2ccccc2)cc1 only.
result: < 4.99

Next compound, pIC50 to be filled in.
query: Answer with the recorded pIC50 of C/C(=C\c1csc(C)n1)[C@@H]1C[C@@H]2O[C@]2(C)CCC[C@H](C)[C@H](O)[C@@H](C)C(=O)C(C)(C)[C@@H](O)CC(=O)O1 only.
result: < 7.49

---

Test system: MHH-CALL-2
ASSAY EXPLANATION: cells
Assay type: functional, cell-based, Homo sapiens
TEST SETTINGS: mhh-call-2
Description: SANGER: Inhibition of human MHH-CALL-2 cell growth in a cell viability assay.
pIC50: −log10 of the molar value. Where a SMILES comes first, the peptide text is derived from it. The star is where a group is joined. Cbz = O=C(OCc1ccccc1)*
RECORDED ENDPOINT: pIC50

query: Quote pIC50 with test system MHH-CALL-2 for CC(C)C[C@@H](C=O)NC(=O)[C@H](CC(C)C)NC(=O)[C@H](CC(C)C)NC(=O)OCc1ccccc1 [MG-132] (Cbz-Leu-Leu-Leu-aldehyde);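 further: growth inhibition of the cell line, read out in a cell viability assay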
result: < 6.00

---

System: GCT
ASSAY EXPLANATION: cells
Format: functional, cell-based
TEST SETTINGS: Homo sapiens
Description: SANGER: Inhibition of human GCT cell growth in a cell viability assay.
RECORDED ENDPOINT: IC50

Examples with their reported IC50 follow.
query: Quote IC50 with test system GCT for CC1=C(/C=C/C(C)=C/C=C/C(C)=C/C(=O)O)C(C)(C)CCC1
result: > 10 µM

query: Quote IC50 with test system GCT for Cc1ccc(C(=O)Nc2ccc(CN3CCN(C)CC3)c(C(F)(F)F)c2)cc1C#Cc1cnc2cccnn12
result: > 0.512 µM

query: Quote IC50 with test system GCT for C/C(=C\c1csc(C)n1)[C@@H]1C[C@@H]2O[C@]2(C)CCC[C@H](C)[C@H](O)[C@@H](C)C(=O)C(C)(C)[C@@H](O)CC(=O)O1
result: 0.00661 µM

query: Quote IC50 with test system GCT for O=C(NCCCNc1nc(Nc2cccc(NC(=O)N3CCCC3)c2)ncc1I)c1cccs1
result: > 5 µM

Next molecule, IC50 to be filled in.
query: Quote IC50 with test system GCT for NC(=O)c1ccc(N(C(N)=O)c2c(F)cccc2F)nc1-c1ccc(F)cc1F
result: > 2 µM

---

Test system: NCI-H28
ASSAY EXPLANATION: cells
Assay type: functional, cell-based
TEST SETTINGS: Homo sapiens
Description: SANGER: Inhibition of human NCI-H28 cell growth in a cell viability assay.
RECORDED ENDPOINT: IC50

query: Quote IC50 with test system NCI-H28 for OC[C@H](Cc1ccccc1)Nc1nc(Oc2ccc3c(c2)CCC3)nc2c1ncn2Cc1ccc(-c2ccccc2)cc1
result: > 10.2 µM

Others:
query: Quote IC50 with test system NCI-H28 for CC1=C(/C=C/C(C)=C/C=C/C(C)=C/C(=O)O)C(C)(C)CCC1
result: > 10 µM

query: Quote IC50 with test system NCI-H28 for CCCCCCCCCCCC1=C(O)C(=O)C=C(O)C1=O
result: 26 µM

query: Quote IC50 with test system NCI-H28 for COC(=O)[C@H](CCSC)NC(=O)c1ccc(NC[C@@H](N)CS)cc1-c1ccccc1;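 further: growth inhibition of human NCI-H28 cells, read out as cell viability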
result: > 1.02 µM

---

Tested on: MV4-11
ASSAY EXPLANATION: cells
Type: functional, cell-based, Homo sapiens, MV-4-11
TEST SETTINGS: Homo sapiens, MV4-11
Description: SANGER: Inhibition of human MV-4-11 cell growth in a cell viability assay.
pIC50: −log10 of the molar value.
RECORDED ENDPOINT: pIC50

Examples with their reported pIC50 follow.
query: Quote pIC50 with test system MV4-11 for O=S(=O)(O)c1ccc2cc(/N=N/c3cc(S(=O)(=O)O)c4cccnc4c3O)ccc2c1
result: < 4.80

query: Quote pIC50 with test system MV4-11 for CN(NC(=O)CC(=O)NN(C)C(=S)c1ccccc1)C(=S)c1ccccc1
result: 7.74

query: Quote pIC50 with test system MV4-11 for CN(C)CCOc1ccc(-c2nc(-c3ccncc3)c(-c3ccc4c(c3)CC/C4=N\O)[nH]2)cc1
result: < 5.30

Next compound, pIC50 to be filled in.
query: Quote pIC50 with test system MV4-11 for C[C@@H](Oc1cc(-c2cnn(C3CCNCC3)c2)cnc1N)c1c(Cl)ccc(F)c1Cl;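 further: cell viability readout measuring growth inhibition of human MV-4-11 cells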
result: < 5.70

---

Some molecules, each annotated with its measured pIC50.
Tested on: IPC-298
ASSAY EXPLANATION: SANGER: Inhibition of human IPC-298 cell growth in a cell viability assay.
Type: functional, cell-based
Friendly reminder that pIC50 comes from taking -log10 of the concentration in mol/L.

query: Answer with the recorded pIC50 of CCCCCCCCCCCC1=C(O)C(=O)C=C(O)C1=O [EMBELIN] only.
result: 4.87

Next molecule, pIC50 to be filled in.
query: Answer with the recorded pIC50 of C/C(=C\c1csc(C)n1)[C@@H]1C[C@@H]2O[C@]2(C)CCC[C@H](C)[C@H](O)[C@@H](C)C(=O)C(C)(C)[C@@H](O)CC(=O)O1 [PATUPILONE] only.
result: 7.66

---

Test system: NCI-H747;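 further: growth inhibition of human NCI-H747 cells, read out by a cell viability assay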
ASSAY EXPLANATION: cells
Assay type: functional, cell-based, Homo sapiens
TEST SETTINGS: nci-h747
Description: SANGER: Inhibition of human NCI-H747 cell growth in a cell viability assay.
Where a SMILES comes first, the peptide text is derived from it. The star is where a group is joined. Cbz = O=C(OCc1ccccc1)*
RECORDED ENDPOINT: IC50 (nM)
# unit: nM | format: bare number

query: Answer with the recorded IC50 of CC(C)C[C@@H](C=O)NC(=O)[C@H](CC(C)C)NC(=O)[C@H](CC(C)C)NC(=O)OCc1ccccc1 [MG-132] (Cbz-Leu-Leu-Leu-aldehyde) only.
result: 713

---

Tested on: A-431;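 further: growth inhibition of A-431 cells, determined with a cell viability read-out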
ASSAY EXPLANATION: cells
Format: functional, cell-based
TEST SETTINGS: Homo sapiens
Description: SANGER: Inhibition of human A431 cell growth in a cell viability assay.
Some compounds, each annotated with its measured IC50.
# unit: nM | format: bare number

Examples with their reported IC50 follow.
query: Answer with the recorded IC50 of COc1ccc(-c2cc3nccn3c(Nc3ncccc3C(N)=O)n2)cc1OC only.
result: 1730

query: Answer with the recorded IC50 of NC(=O)Nc1cc(-c2cccc(F)c2)sc1C(=O)N[C@H]1CCCNC1 [AZD-7762] only.
result: 925

query: Answer with the recorded IC50 of CN(NC(=O)CC(=O)NN(C)C(=S)c1ccccc1)C(=S)c1ccccc1 [ELESCLOMOL] only.
result: 126

query: Answer with the recorded IC50 of OC[C@H](Cc1ccccc1)Nc1nc(Oc2ccc3c(c2)CCC3)nc2c1ncn2Cc1ccc(-c2ccccc2)cc1 only.
result: 3320

Next compound, IC50 to be filled in.
query: Answer with the recorded IC50 of O=C(NCCCNc1nc(Nc2cccc(NC(=O)N3CCCC3)c2)ncc1I)c1cccs1 [BX-795] only.
result: 2760

---

Tested on: NCI-H1299
ASSAY EXPLANATION: cells
Format: functional, cell-based
TEST SETTINGS: Homo sapiens
Description: SANGER: Inhibition of human NCI-H1299 cell growth in a cell viability assay.
Where a SMILES comes first, the peptide text is derived from it. The star is where a group is joined. Cbz = O=C(OCc1ccccc1)*
RECORDED ENDPOINT: IC50

Examples with their reported IC50 follow.
query: Answer with the recorded IC50 of C/C(=C\c1csc(C)n1)[C@@H]1C[C@@H]2O[C@]2(C)CCC[C@H](C)[C@H](O)[C@@H](C)C(=O)C(C)(C)[C@@H](O)CC(=O)O1 only.
result: 0.88 nM

query: Answer with the recorded IC50 of CC1=C(/C=C/C(C)=C/C=C/C(C)=C/C(=O)O)C(C)(C)CCC1 only.
result: > 10000 nM

query: Answer with the recorded IC50 of CS(=O)(=O)N1CCN(Cc2cc3nc(-c4cccc5[nH]ncc45)nc(N4CCOCC4)c3s2)CC1 only.
result: > 4000 nM

query: Answer with the recorded IC50 of Cc1ccc(NC(=O)c2ccc(CN3CCN(C)CC3)cc2)cc1Nc1nccc(-c2cccnc2)n1 only.
result: > 2000 nM

query: Answer with the recorded IC50 of O=C(NCCCNc1nc(Nc2cccc(NC(=O)N3CCCC3)c2)ncc1I)c1cccs1 only.
result: > 5000 nM

Others:
query: Answer with the recorded IC50 of COc1ccc(-c2cc3nccn3c(Nc3ncccc3C(N)=O)n2)cc1OC only.
result: > 8000 nM

query: Answer with the recorded IC50 of CC(C)C[C@@H](C=O)NC(=O)[C@H](CC(C)C)NC(=O)[C@H](CC(C)C)NC(=O)OCc1ccccc1 [MG-132] (Cbz-Leu-Leu-Leu-aldehyde) only.
result: > 1000 nM

query: Answer with the recorded IC50 of O=C1NC(=O)c2c1c(-c1ccccc1Cl)cc1[nH]c3ccc(O)cc3c21 only.
result: > 2000 nM
